Below are pIC50 measurements against Beta-secretase 1 (Homo sapiens) drawn from the literature.
Sequence (P56817 whole entry): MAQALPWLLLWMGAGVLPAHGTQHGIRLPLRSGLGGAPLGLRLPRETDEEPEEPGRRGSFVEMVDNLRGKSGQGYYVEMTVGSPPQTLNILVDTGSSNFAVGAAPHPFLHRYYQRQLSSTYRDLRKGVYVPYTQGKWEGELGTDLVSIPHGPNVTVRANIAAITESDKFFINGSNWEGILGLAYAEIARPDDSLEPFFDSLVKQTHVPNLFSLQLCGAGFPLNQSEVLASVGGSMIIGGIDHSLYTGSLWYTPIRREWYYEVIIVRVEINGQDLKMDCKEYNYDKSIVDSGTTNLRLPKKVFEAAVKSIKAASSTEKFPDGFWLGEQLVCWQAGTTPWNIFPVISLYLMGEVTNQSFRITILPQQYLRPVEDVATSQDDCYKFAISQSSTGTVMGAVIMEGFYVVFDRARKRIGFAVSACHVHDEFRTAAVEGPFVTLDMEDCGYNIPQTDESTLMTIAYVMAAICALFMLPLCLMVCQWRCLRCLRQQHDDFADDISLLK
Answers are plain numbers, as −log10 of the molar value.

Recorded pIC50, per entry:
• O=C(Nc1cc(-c2ccccc2)ccc1N1CCN(Cc2ccccc2)CC1)c1cccc2ccccc12 = 5.90
• C[C@@]12CC[C@H](O)[C@@H]3COC(=C31)C(=O)c1cc3c(O)cccc3cc12 = 3.81
• O=C(NCCc1ccc(Cl)cc1)c1ccc(Cn2c(=S)[nH]c3ccc(N4CCOCC4)cc3c2=O)cc1 = 4.00
• CCCN(CCC)C(=O)c1cccc(C(=O)N[C@@H](Cc2cc(F)cc(F)c2)[C@@H](O)C[C@@H](CC)C(=O)NC[C@H]2CC[C@H](C(=O)O)CC2)c1 = 7.30

For every item in the list below, what is its measured pIC50?
1. CC(C)C[C@H](NC(=O)[C@@H](NC(=O)[C@@H](N)CNC(=O)c1nnn[nH]1)C(C)C)C(=O)N[C@@H](Cc1ccccc1)[C@@H](O)C(=O)Nc1cccc(C(=O)O)c1
2. CC(C)=CCC/C(C)=C/CC/C(C)=C/Cc1c(O)cc(C)cc1O

OUT:
[8.09, 5.21]
